This collection of values is drawn from ChEMBL document CHEMBL4680170.

Test system: HCT-116
MEASUREMENT_PROTOCOL: Antiproliferative activity against human HCT 116 cells assessed as reduction in cell viability measured after 72 hrs by MTS assay
Type: functional, cell-based
RUN_PARAMETERS: HCT-116, 72 h
READOUT: IC50 (nM)
Answer with a number only, understood to be in nM.

Task: Specify IC50 for CCCCCCCCCCn1cc(-c2ccc(-c3cc(-c4ccccn4)nc(-c4ccccn4)c3)cc2)nn1 and stop.
Output: 270
